// light intensity, BTN-HRP250 lookup, one value per entry
Test system: biotinylated HRP
Assay: Model system for selection of SSIA (AK1/streptavidin BSA microparticles + biotinylated HRP)
Type: biochemical, horseradish
Conditions: Btn-HRP 250 ng/mL, total HRP 500 ng/mL; SSIA 100 μM final

Worked set:
O=C(O)c1cccnc1
9,224,439
CCCCCCCCCCCCCCCC(=O)OC[C@H](O)[C@H]1OC(=O)C(O)=C1O [Ascorbic Acid 6-palmitate]
10,182,411
CC1(C)CC(O)CC(C)(C)N1[O]
10,578,104

Entry CC1(C)OC[C@@H]([C@H]2OC(=O)C(O)=C2O)O1 , system biotinylated HRP: what light intensity, BTN-HRP250 was measured?
8,784,595

* * *

Test system: biotinylated HRP
Experiment: Model system for selection of SSIA (AK1/streptavidin BSA microparticles + biotinylated HRP)
Type: biochemical, horseradish
Details: Btn-HRP 0 ng/mL, total HRP 500 ng/mL; SSIA 100 μM final
property label: light intensity, BTN-HRP0

Reported light intensity, BTN-HRP0, compound Oc1ccc(Cl)cc1O : ____
93

Reported light intensity, BTN-HRP0, compound Nc1ccc(C(=O)O)cc1O [4-Amino-3-hydroxy-benzoic acid] : ____
972

Reported light intensity, BTN-HRP0, compound Cc1c(C)c2c(c(C)c1O)CCC(C)(C(=O)O)O2 (stereo not drawn) : ____
173

Reported light intensity, BTN-HRP0, compound NNC(=O)c1cccnc1 [Nicotinic Hydrazide] : ____
42,260

Reported light intensity, BTN-HRP0, compound Oc1ccc(O)c(Cl)c1 [2-chloro-1,4-dihydroxybenzene] : ____
3,571

* * *

Tested on: biotinylated HRP
Experiment: Model system for selection of SSIA (AK1/streptavidin BSA microparticles + biotinylated HRP)
Assay type: biochemical, horseradish
Details: SSIA 100 μM final
property label: effectiveness as SSIA in the model system

N[C@@H](CS)C(=O)O
insuffient effectiveness
O=C(O)CCCC[C@@H]1CCSS1 (racemic)
insuffient effectiveness

* * *

// Signal/Noise S4/S0 lookup, one value per entry
Test system: TnI
Assay: Assays utilizing various SSIA in TnI assay
Format: biochemical
Conditions: calibrator S4; SSIA final concentration 250 uM
Form rule: numeric answer, no unit written next to it.

Worked set:
Nc1cc(C[C@H](N)C(=O)O)ccc1O
31.1
Nc1ccccc1O
15.4
O=C1O[C@H]([C@@H](O)CO)C(O)=C1O
28.7

Reported Signal/Noise S4/S0, compound Cc1c(C)c2c(c(C)c1O)CCC(C)(C(=O)O)O2 (stereo not shown) : ____
45.8

* * *

System: biotinylated HRP
Assay: Model system for selection of SSIA (AK1/streptavidin BSA microparticles + biotinylated HRP)
Type: biochemical, horseradish
Details: Btn-HRP 250 ng/mL, total HRP 500 ng/mL; SSIA 100 μM final
property label: light intensity, BTN-HRP250

Worked set:
CC(=O)N[C@@H](CS)C(=O)O [N-Ac-Cysteine, N-acetyl cysteine]
10,219,869
COc1cc(C(=O)O)cc(OC)c1O [Syringic Acid]
9,530,979
Nc1ccc(C(=O)O)cc1O [4-Amino-3-hydroxy-benzoic acid]
6,403,425
O=C(O)CCCC[C@@H]1CCSS1 (racemic) [Lipoic Acid]
8,847,921
N[C@@H](CS)C(=O)O [Cysteine]
10,190,505

Reported light intensity, BTN-HRP250, molecule Nc1ccccc1O [2-amino phenol, 2-aminophenol] : ____
4,008,689
